Experimental System: TIE2 kinase (Homo sapiens)
Sequence (Q02763 762-1104): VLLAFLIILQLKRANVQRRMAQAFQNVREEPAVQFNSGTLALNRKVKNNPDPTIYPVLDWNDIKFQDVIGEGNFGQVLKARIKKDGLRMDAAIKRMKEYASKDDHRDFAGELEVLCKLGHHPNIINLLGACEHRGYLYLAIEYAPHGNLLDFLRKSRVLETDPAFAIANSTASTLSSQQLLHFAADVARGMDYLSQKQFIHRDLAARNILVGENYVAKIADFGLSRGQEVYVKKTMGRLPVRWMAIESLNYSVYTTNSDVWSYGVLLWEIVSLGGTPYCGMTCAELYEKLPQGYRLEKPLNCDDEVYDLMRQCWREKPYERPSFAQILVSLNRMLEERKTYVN
Measure: IC50

Task item: For TIE2 kinase (Homo sapiens), give the measured IC50 of the entry CNC(=O)c1cc(Oc2ccc3c(c2)CCN3C(=O)Nc2cc(C(F)(F)F)cc(C(F)(F)F)c2)ccn1
Reply: < 250 nM

###

Experimental System: Raf kinase
Test Description: Raf kinase inhibition
Measure: IC50

Task item: For the compound CNC(=O)c1cc(Oc2ccc3c(c2)CCN3C(=O)Nc2ccc(Cl)c(C(F)(F)F)c2)ccn1 , report IC50.
Reply: < 250 nM
